system: Plasmodium falciparum; test: Screen against P. falciparum Asexual Blood Stage (ABS), at 5uM; type: functional, Dd2; conditions: tested at 5 uM
The campaign covered roughly 65,000 compounds. About 2,100 (3.2%) showed an effect of 50% or more. The median lay at about -52%. The list comes from a sample in which strong results are over-represented; it also holds close analogues and randomly drawn compounds.
Provide the reported INHIBITION of each item.
Numbers only, in %.

INSERT INTO measurements (compound, unit, val) VALUES
  ('CC(NC(=O)CN1CCCC1=O)c1ccc(Cl)s1 (stereo unspecified)', '%', -3.71),
  ('CN(C)C(=O)[C@H]1CC[C@@H]2[C@@H](CCN2Cc2ccccn2)O1', '%', -43.5),
  ('Cc1nnc(N2CCCC3(CN(Cc4cccnc4)CCO3)C2)o1 (stereo unspecified)', '%', -77.8);

Go through the items and report each one's INHIBITION.
1. O=C(Cc1ccc(O)c(Cl)c1)N1CCN(CC2CC2)[C@@H]2CS(=O)(=O)C[C@@H]21
2. CC(Cn1cccn1)NCc1ccc(Cl)s1 (stereo unspecified)
3. CN(C)C(=O)[C@@H]1CC[C@@H]2[C@@H](CCN2Cc2ccccn2)O1
4. COC(=O)C(CO)NC(=O)c1cn(Cc2ccccc2F)nn1 (stereo unspecified)
5. COc1cc(CNCCNC(=O)c2ccc(O)cc2)ccc1SC
6. Cc1cc(C(C)NCCN2CCC(N(C)C)CC2)c(C)s1 (stereo unspecified)

Reply:
1: -53.2; 2: -30.2; 3: -97.6; 4: -19.2; 5: 26.9; 6: 81.6

Give measured INHIBITION for every item shown.
1. CC(NCCN1CCC(N(C)C)CC1)c1ccc(Cl)s1 (stereo unspecified)
2. COc1ccc(F)c(CN2CCCC(O)(CNC3CCCCC3)C2=O)c1 (stereo unspecified)

Reply:
1: 75.4; 2: 70.3

====

tested on: Plasmodium falciparum; assay: Screen against P. falciparum Asexual Blood Stage (ABS), at 5uM; type: functional, Dd2; settings: tested at 5 uM
Screen size: about 65,000 compounds; about 2,100 (3.2%) showed an effect of 50% or more. The median lay at about -52%. The sample holds strong results, similar compounds and a random draw of the others, so the mix is not that of the screen.
Friendly reminder: INHIBITION below -40% is true (1), at or above is false (0).

Example cases with answers are listed next.
INSERT INTO assay_data (compound, class_assignment) VALUES
  ('CCc1[nH]c(C2(N)CCCC2)nc(=O)c1C', 'false (0)'),
  ('c1ccc(O[C@@H]2CC[C@H]3[C@H]2OCCN3CC2CCOCC2)nc1', 'true (1)');

Query: A record lists `O=C(C1CCC1)N1CCC2(CC1)OCCO2` . Is its INHIBITION below -40%?
Reply: false (0)

Query: Does this compound meet the criterion INHIBITION < -40%? `CCc1cc(N2CCNCC2)n2nc(C)c(C)c2n1`
Reply: true (1)

Query: Please indicate whether the reported INHIBITION of `Nc1ncccc1CN1C[C@H]2OC(=O)N(Cc3ccccn3)[C@H]2C1` is strictly below -40%.
Reply: true (1)

====

system: Plasmodium falciparum; experiment: Screen against P. falciparum Asexual Blood Stage (ABS), at 5uM; format: functional, Dd2; settings: tested at 5 uM
The whole screen tested about 65,000 compounds, of which about 2,100 (3.2%) showed an effect of 50% or more. The median lay at about -52%. This excerpt belongs to a sample that is enriched for strong results.
measured-metric: INHIBITION (%)
One number for each entry, in %.

# example entries with known answers
INSERT INTO measurements (compound, val) VALUES
  ('CCc1ccc(CN2CC[C@@H]3NC(=O)CC[C@@H]32)o1', 11.1),
  ('c1ccc2nc(CN3CCCC3c3noc(C4CC4)n3)ccc2c1 (stereo unspecified)', 72.7),
  ('Cc1nc(CN2CCCC2c2noc(C3CC3)n2)nc2ccccc12 (stereo unspecified)', 78.7),
  ('CO[C@H]1CN(CC2CC2)[C@@H]2CCCO[C@H]12', 7.3),
  ('CCCS(=O)(=O)CC(=O)N1CCCC1c1noc(C2CC2)n1 (stereo unspecified)', -40.7);

Pending compound:
Query: // lookup INHIBITION for `Cc1noc(C)c1CN1CC[C@H]2[C@H]1CCN2CC1CCOCC1`
Reply: -92

====

I'd appreciate it if you could supply INHIBITION values for the items below.
tested on: Plasmodium falciparum; experiment: Screen against P. falciparum Asexual Blood Stage (ABS), at 5uM; format: functional, Dd2; conditions: tested at 5 uM
Hit rate of the full screen: of about 65,000 compounds, about 2,100 (3.2%) showed an effect of 50% or more. The median lay at about -52%. The entries come from a sample that favours strong results as a whole.
Give bare numbers, in %.

These solved cases illustrate the format of a correct answer.
INSERT INTO assay_data (molecule, val) VALUES
  ('Cc1n[nH]c2c1C(c1cc(F)cc(F)c1)SCC(=O)N2 (stereo not drawn)', -23.5),
  ('O=S(=O)(NCCN1CC=CC1)c1ccc(Cl)cc1', 76.2),
  ('COc1cccc(CNC(C)C)c1OCc1ccc(C)cc1', 73.7),
  ('CCn1cncc1Cn1ncc2ccccc2c1=O', -114),
  ('Cc1ccc(C2(CN3CCN(Cc4cnc(C)n4C)CC3)CC2)cc1', 95.4);

Kindly give each listed record's INHIBITION.
1. O=C(NCc1ccccn1)[C@@]12CCO[C@@H]1CCN(C1CCCC1)C2
2. CC(C)Nc1nc2c(c(NC3CC3)n1)CCN(Cc1nccn1C)CC2
3. CC(C)N1CCC2(CC1)CC(NCc1ccccn1)c1ccccc1O2 (stereo not drawn)
4. Cn1ccnc1CN1CC[C@H]2CO[C@H](CNc3ncccn3)[C@H]2C1
5. CC1(C)C(C(=O)NCCC2CN(Cc3c[nH]cn3)CCO2)C1(C)C (stereo not drawn)

Reply:
[-21.2, 76.1, 70.7, -52.6, -64.7]

Give me INHIBITION for each of these molecules, listed below.
1. CCN1c2ccc(-c3cncn3CCCn3ccnc3C)cc2CC1C (stereo not drawn)
2. CC(C)c1ncc(Cl)c(C(=O)N2CCCN3CCCC3C2)n1 (stereo not drawn)
3. O=C(C[C@@H]1COC[C@H]2CN(Cc3cccnc3)C[C@@H]12)NCC1CC1
4. Cc1cnc(N2CCCC3(CCCN(C)C3)C2)nc1 (stereo not drawn)
5. Cc1ccc(C2(CN3CCN(Cc4cncn4C)CC3)CC2)cc1
6. COc1cc(CNCC(C)O)cc(Cl)c1OCc1ccc(C)cc1 (stereo not drawn)
7. O=C1[C@H]2CN(Cc3ccoc3)C[C@@H]2CCN1Cc1cccnc1

Reply:
86.6
-79
-71.5
-9.73
73.2
73.9
-121

Quick one: give me INHIBITION for each item below, same order please.
1. O=C1[C@H]2CN(Cc3ccoc3)C[C@H]2CN1Cc1ccncc1
2. CCN1CCN(C(=O)c2cn(Cc3ccccc3)c3ncccc23)CC1
3. N#Cc1ccc(S(=O)(=O)NCCn2ccnc2)cc1Cl
4. Cc1cccc(OC(C)C(=O)NCC2(N(C)C)CCCC2)c1 (stereo not drawn)
5. Cc1cccc(NC(=O)N2CCC(CO)(Nc3ccccc3)CC2)c1
6. COCCN1CCCC12CCCN(c1ncccn1)C2 (stereo not drawn)

Reply:
[-110, 20.5, -39.2, 81.4, -38.235, -47.3]

====

test system: Plasmodium falciparum; test: Screen against P. falciparum Asexual Blood Stage (ABS), at 5uM; assay type: functional, Dd2; details: tested at 5 uM
Hit rate of the full screen: of about 65,000 compounds, about 2,100 (3.2%) showed an effect of 50% or more. The median lay at about -52%. The entries come from a sample that favours strong results as a whole.
measured-metric: INHIBITION (%)
Give bare numbers, in %.

Check out these entries, answers already filled in.
INSERT INTO assay_data (compound, val) VALUES
  ('CCCN1CCN(C(=O)c2cnc(C)nc2)[C@H]2CS(=O)(=O)C[C@H]21', -183),
  ('Cc1ccccc1SC1CCN(C(=O)C2[C@H]3CNC[C@@H]23)CC1 (stereo partly specified)', 73.3),
  ('Cc1ncc(CN(C)C2CCCN(CCc3ccccc3)C2)n1C (stereo unspecified)', 90),
  ('COc1ccc(Cl)cc1CN(C)C(=O)CN1C(=O)CCC1C (stereo unspecified)', -38.8),
  ('Cc1cccc(CN2CCN(C(=O)N(C)C)[C@@H]3CS(=O)(=O)C[C@@H]32)n1', -85.1),
  ('CCn1ccnc1CN(C)C1CCCN(CCc2ccccc2)C1 (stereo unspecified)', 77.1);

Dear colleague, could you please provide INHIBITION for the compounds listed below?
1. Cc1ccc(C(=O)N2C[C@H]3CNC[C@H]3C2)cn1
2. O=C(C1CCCCC1)N1C[C@H]2CNC[C@H]2C1
3. Cc1cc(Oc2ccc(NC(=O)C3CC3)cc2)cc(C2CCNCC2)n1
4. c1cncc(CO[C@H]2CO[C@@]3(CCN(Cc4ccoc4)C3)C2)c1
5. CCn1c(C)nnc1CN(C)C1CCN(CCOc2ccccc2)C1 (stereo unspecified)

Reply:
1. -104
2. 44.5
3. 87.8
4. 23.3
5. -23.4
